- TEST_TARGET: Human immunodeficiency virus type 1 reverse transcriptase (Human immunodeficiency virus 1, UniProt Q72547)
pIC50: −log10 of the molar value.
MEASURED_ATTRIBUTE: pIC50

MOLECULE	pIC50
Cc1cn([C@H]2C[C@H](N=[N+]=[N-])[C@@H](CO[P@](=O)(O)O[P@](=O)(O)OP(=O)(O)O)O2)c(=O)[nH]c1=O [ZIDOVUDINE TRIPHOSPHATE]	5.68
C#C[C@]1(COP(=O)(O)OP(=O)(O)OP(=O)(O)O)O[C@@H](n2cc(C)c(=O)[nH]c2=O)C[C@@H]1O	5.48
